Reference source for all entries: patent US20060105045A1

PROTOCOL_TEXT: Initial solubility screening of selected drugs in cyclodextrin derivative:water-miscible organic solvent stock solutions
Assay type: physicochemical
EXPERIMENTAL_CONDITIONS: 20-22 mg drug; HBenβCD5.0 (30 wt %), PEG 400 (66.2 wt %), PG (3.8 wt %); raloxifene HCl + ca. 100 mg water, tamoxifen citrate + ca. 40 mg water
Counter-ions that a name gives are not always drawn.
Attribute: grams of stock solution required to solubilize the drug, Stock #3
Kindly provide the numeric value in grams only, without the unit symbol.

INSERT INTO measurements (molecule, observed_result) VALUES
  ('C=C1C[C@@H]2[C@H](CC[C@]3(C)C(=O)CC[C@@H]23)[C@@]2(C)C=CC(=O)C=C12 [Exemestane]', 1.5);

Problem: Give the reported grams of stock solution required to solubilize the drug, Stock #3 for this molecule. O=C(c1ccc(OCCN2CCCCC2)cc1)c1c(-c2ccc(O)cc2)sc2cc(O)ccc12 [Raloxifene HCL]
Solution: 1.6

Problem: Return the recorded grams of stock solution required to solubilize the drug, Stock #3 value; entry: CC(C)(C#N)c1cc(Cn2cncn2)cc(C(C)(C)C#N)c1 [Anastrozole]
Solution: 1.0

Problem: # return recorded grams of stock solution required to solubilize the drug, Stock #3 for entry CC(=O)O[C@H]1C(=O)[C@@]2(C)[C@H]([C@H](OC(=O)c3ccccc3)[C@]3(O)C[C@H](OC(=O)[C@H](O)[C@@H](NC(=O)c4ccccc4)c4ccccc4)C(C)=C1C3(C)C)[C@]1(OC(C)=O)CO[C@@H]1C[C@@H]2O [Paclitaxel]
Solution: 1.0

* * *

PROTOCOL_TEXT: Initial solubility screening of selected drugs in cyclodextrin derivative:water-miscible organic solvent stock solutions
Assay type: physicochemical
EXPERIMENTAL_CONDITIONS: 20-22 mg drug; HBenβCD6.6 (32 wt %), PEG 400 (68 wt %); raloxifene HCl + ca. 100 mg water, tamoxifen citrate + ca. 40 mg water
Counter-ions that a name gives are not always drawn.
Listed next: entries and their corresponding grams of stock solution required to solubilize the drug, Stock #4.
Field: value (include unit after the number)

Solved cases (3 shown):
INSERT INTO results (compound, observed_result) VALUES
  ('C=C1C[C@@H]2[C@H](CC[C@]3(C)C(=O)CC[C@@H]23)[C@@]2(C)C=CC(=O)C=C12', '1.5 grams'),
  ('O=C(c1ccc(OCCN2CCCCC2)cc1)c1c(-c2ccc(O)cc2)sc2cc(O)ccc12 [Raloxifene HCL]', '1.6 grams'),
  ('CC(C)(C#N)c1cc(Cn2cncn2)cc(C(C)(C)C#N)c1', '1.0 grams');

Proceeding to the next compound to report its grams of stock solution required to solubilize the drug, Stock #4.
Problem: Supply reported grams of stock solution required to solubilize the drug, Stock #4 belonging to this compound: `CC(=O)O[C@H]1C(=O)[C@@]2(C)[C@H]([C@H](OC(=O)c3ccccc3)[C@]3(O)C[C@H](OC(=O)[C@H](O)[C@@H](NC(=O)c4ccccc4)c4ccccc4)C(C)=C1C3(C)C)[C@]1(OC(C)=O)CO[C@@H]1C[C@@H]2O`
Solution: 1.0 grams

* * *

PROTOCOL_TEXT: Initial solubility screening of selected drugs in cyclodextrin derivative:water-miscible organic solvent stock solutions
Assay type: physicochemical
EXPERIMENTAL_CONDITIONS: 20-22 mg drug; HBenβCD6.6 (32 wt %), PEG 400 (64.6 wt %), PG (3.4 wt %); raloxifene HCl + ca. 100 mg water, tamoxifen citrate + ca. 40 mg water
Counter-ions that a name gives are not always drawn.
Below is a list of entries, each paired with its recorded grams of stock solution required to solubilize the drug, Stock #6 value.
The figure you give is taken to be in grams; do not add the unit.

Examples with answers:
INSERT INTO assay_data (molecule, observed_result) VALUES
  ('O=C(c1ccc(OCCN2CCCCC2)cc1)c1c(-c2ccc(O)cc2)sc2cc(O)ccc12 [Raloxifene HCL]', 1.6),
  ('CC(C)(C#N)c1cc(Cn2cncn2)cc(C(C)(C)C#N)c1 [Anastrozole]', 1.0),
  ('C=C1C[C@@H]2[C@H](CC[C@]3(C)C(=O)CC[C@@H]23)[C@@]2(C)C=CC(=O)C=C12 [Exemestane]', 1.5);

Next up:
Problem: Query grams of stock solution required to solubilize the drug, Stock #6 for CC(=O)O[C@H]1C(=O)[C@@]2(C)[C@H]([C@H](OC(=O)c3ccccc3)[C@]3(O)C[C@H](OC(=O)[C@H](O)[C@@H](NC(=O)c4ccccc4)c4ccccc4)C(C)=C1C3(C)C)[C@]1(OC(C)=O)CO[C@@H]1C[C@@H]2O [Paclitaxel]
Solution: 1.0
